From: PubChem BioAssay AID1996

Would you mind telling me the reported solubility kinetic of each entry?
conditions: buffer; pH 7.4; 200.0 µM

- COc1cccc(C(=O)NCC(=O)OCC(=O)NC2CCCCC2)c1: > 52.3 µg/mL
- Cc1nnc(SCC(=O)NC2CC2)n1CC1CCCO1 (stereo unspecified): > 44.5 µg/mL
- CNC(=O)COC(=O)c1cc2c(s1)CCCC2: > 38 µg/mL
- O=C(Oc1ccc(Cl)cc1)N1CCOCC1: > 36.3 µg/mL
- O=C(c1ccccc1)c1cccc[n+]1[O-]: > 29.9 µg/mL

Hi, could you look up solubility kinetic for each item in my list?
1. CC(=O)O.CC1=CC(C)C(/C=N/N=C(N)N)C(C)C1 (stereo unspecified)
2. CC(=O)c1cc(N2CCOCC2)ccc1[N+](=O)[O-]
3. Cn1c(=O)c2[nH]c(-c3ccc(S(=O)(=O)O)cc3)nc2n(C)c1=O.O
4. CC(=O)Nc1cccc(C(=O)OC2CCOC2=O)c1 (stereo unspecified)

1. > 40.3 µg/mL
2. > 37.5 µg/mL
3. > 53.2 µg/mL
4. > 39.5 µg/mL

Hi, could you look up solubility kinetic for each item in my list?
1. COC(=O)c1c(N)sc2c1CC(C)(C)OC2
2. O=C(O)CCC(=O)NCC(=O)c1ccc(F)cc1

1: > 36.2 µg/mL; 2: > 38 µg/mL

* * *

conditions: buffer; pH 7.4; 200.0 µM
Would you mind telling me the reported log10(solubility kinetic) of each entry?
// units: µg/mL (pre-log); metric: solubility kinetic; scale: log10

* O=C(c1ccco1)N1CCN(CCOc2ccccc2)CC1 | 1.63
* CCOc1ccc(CNC2CCCCCCC2)cc1OC.Cl | 1.57
* Cc1ccc(C2Nc3cccc4cccc(c34)N2)cc1 | 0.67

Hi, could you look up log10(solubility kinetic) for each item in my list?
1. Cc1sc(N)nc1-c1ccc2c(c1)OCCO2
2. O=C(Nc1nccs1)c1ccc(-c2ccc(F)c(Cl)c2)o1

1. 1.29
2. -0.30

Hi, could you look up log10(solubility kinetic) for each item in my list?
1. CN1CCN(c2ccc(CNS(=O)(=O)c3ccsc3)cc2)CC1
2. COc1cc(/C=C/C(=O)OCC(=O)NC(C)c2ccccc2)cc(OC)c1OC (stereo not drawn)
3. C=CCSc1ncccc1C(=O)NCCc1ccc(Cl)cc1

[1.36, 1.74, 0.56]

* * *

settings: buffer; pH 7.4; 200.0 µM
assay_readout: solubility kinetic

- Cc1ccc2c(c1)N(CC(=O)N1CCOCC1)C(=O)CO2: > 43.5 µg/mL
- Cc1ccccc1C(=O)c1cccn1CC(=O)N1CCCCC1: > 46.6 µg/mL
- O=C(CN1C(=O)CNC1=O)Nc1cc(Cl)cc(Cl)c1: > 45.3 µg/mL
- CCCCN1C(=O)C(=O)N(CC(=O)c2ccc[nH]2)C1=O: > 41.6 µg/mL
- CC(=O)NC(=S)Nc1cc(C(=O)O)ccc1Cl: > 40.9 µg/mL

Hi, could you look up solubility kinetic for each item in my list?
1. O=C(CN1C(=O)C(=O)N(C2CCCC2)C1=O)Nc1ccccc1OC(F)F
2. O=C(CCN1CCN(CCO)CC1)Nc1cccc(Br)c1
3. CCCCN(C(=O)C1CCC1)c1c(N)n(CCC)c(=O)[nH]c1=O
4. CN1CCN(S(=O)(=O)c2ccc([N+](=O)[O-])cc2)CC1
5. O=C(/C=C/c1ccc([N+](=O)[O-])cc1)OCC(=O)N1CCCC1
6. CNC(=S)NCCCc1ccccc1

1. > 57.2 µg/mL
2. > 53.4 µg/mL
3. > 48.4 µg/mL
4. > 42.8 µg/mL
5. > 45.6 µg/mL
6. > 31.2 µg/mL

* * *

details: buffer; pH 7.4; 200.0 µM
Would you mind telling me the reported solubility kinetic of each entry?

• C=CCn1c(O)c(C=Nc2c(C)n(C)n(-c3ccccc3)c2=O)c(=O)[nH]c1=O = > 57.2 µg/mL
• OCCN(Cc1ccccc1)c1ncnc2sccc12 = > 42.8 µg/mL

Would you kindly look at the next entry?
Which solubility kinetic is listed for `COCCNS(=O)(=O)c1cc(OC)c(C)cc1C` ?
> 41 µg/mL

* * *

settings: buffer; pH 7.4; 200.0 µM
assay_readout: solubility kinetic

• CCC(C)c1ccccc1NC(=O)c1cc(C)no1 (stereo unspecified) = > 38.7 µg/mL
• Cc1ccccc1Nc1nc(N)nc(CCl)n1 = > 37.5 µg/mL
• CC1CCN(C(=O)COC(=O)CCC(=O)c2ccc(F)cc2)CC1 = > 50.3 µg/mL
• O=C(NC1CCS(=O)(=O)C1)c1cc(-c2ccccc2)nc2ccccc12 (stereo unspecified) = > 55 µg/mL
• O=C(O)c1cc(-c2ccc3ccccc3c2)nc2ccc(F)cc12 = > 47.6 µg/mL
• Cc1ccc(-n2c(SCC(N)=O)nnc2-c2cnccn2)cc1 = > 49 µg/mL

Hi, could you look up solubility kinetic for each item in my list?
1. Cn1c(=O)[nH]c(=O)c2c1nc(N1CCNCC1)n2Cc1ccccc1
2. COc1ccc(C(N)=O)c(OCC(=O)Nc2cc(C)on2)c1
3. Cc1cccc(N2CC(C(=O)Nc3ccccc3N3CCOCC3)CC2=O)c1C (stereo unspecified)
4. Cc1ccc(S(=O)(=O)Nc2nc(-c3ccccc3)cs2)cc1
5. CCOC(=O)CSc1nc(C)cc(C)c1C(N)=O
6. Cc1cccc(NC(=O)Nc2c(C)n(C)n(-c3ccccc3)c2=O)c1

["45.8 µg/mL", "11 µg/mL", "> 59 µg/mL", "> 49.6 µg/mL", "35.6 µg/mL", "> 50.5 µg/mL"]

Hi, could you look up solubility kinetic for each item in my list?
1. O=C1CC2c3ccccc3C1C1C(=O)N(Cc3ccccc3)C(=O)C21 (stereo unspecified)
2. CCn1cnnc1SCC(=O)Nc1ccccc1C(=O)NC1CC1
3. NS(=O)(=O)c1cccc(NC(=O)CCC(=O)c2cccs2)c1
4. Cc1cc(C)c(S(=O)(=O)Nc2cnc3ccccc3c2)c(C)c1
5. C=CCNC(=S)NNC(=O)c1ccncc1

1: > 49.7 µg/mL; 2: > 51.8 µg/mL; 3: > 50.8 µg/mL; 4: 19.2 µg/mL; 5: > 35.4 µg/mL

Hi, could you look up solubility kinetic for each item in my list?
1. O=C(Nc1nc2ccccc2[nH]1)c1cc(F)cc(F)c1
2. O=C1Nc2ccc(Br)cc2C1(O)c1ccccc1 (stereo unspecified)
3. O=[N+]([O-])c1ccc(NS(=O)(=O)N2CCOCC2)cc1
4. COc1cccc(CNC(=O)c2csc3c2CCCC3)c1

0.7 µg/mL
> 45.6 µg/mL
> 43.1 µg/mL
19.5 µg/mL

* * *

conditions: buffer; pH 7.4; 200.0 µM
Would you mind telling me the reported solubility kinetic of each entry?

The examples below pair each entry with its known result.
• COc1ccc(NC(=O)CCCC(=O)O)cc1Cl = > 40.8 µg/mL
• Nc1ccc(-c2ccc(N)c(C(=O)O)c2)cc1C(=O)O = > 40.8 µg/mL

Hi, could you look up solubility kinetic for each item in my list?
1. CC(=O)N/C(=C\c1ccccc1)C(=O)Nc1ccc(O)cc1
2. Cl.Clc1cccc(N2CCNCC2)c1
3. CCN(CC(=O)Nc1ccc(NC(C)=O)cc1)C(=O)c1c(C)nn(-c2ccc(F)cc2)c1Cl
4. CN(C1(C)CCS(=O)(=O)C1)S(=O)(=O)c1cccc([N+](=O)[O-])c1 (configuration not stated)
5. CO/N=C/C(NC(=O)c1ccc(C(F)(F)F)cc1)C(=O)OC (configuration not stated)

> 44.4 µg/mL
> 35 µg/mL
> 70.8 µg/mL
> 52.3 µg/mL
> 47.7 µg/mL

* * *

conditions: buffer; pH 7.4; 200.0 µM
assay_readout: solubility kinetic

The examples below pair each entry with its known result.
• COc1cccc(-c2cc(C(=O)NCC3CCCO3)on2)c1 (stereo unspecified) = > 45.3 µg/mL
• CC1CCCCN1CCn1c(=S)[nH]c2cc3c(cc2c1=O)OCO3 (stereo unspecified) = > 52.1 µg/mL
• CCOC(=O)c1cnc2c(C)cccc2c1NCCCN1CCOCC1 = > 53.6 µg/mL
• CC(=O)C1=C(O)C(=O)N(c2ccc(O)cc2)C1c1cccc(F)c1 (stereo unspecified) = > 49.1 µg/mL

Hi, could you look up solubility kinetic for each item in my list?
1. CCN(CC(=O)N1CCOCC1)S(=O)(=O)c1ccccc1
2. CCOC(=O)C1CCN(C(=O)COC(=O)CNC(=O)c2ccc(C(C)(C)C)cc2)CC1

1: > 46.9 µg/mL; 2: > 64.9 µg/mL

* * *

Would you mind telling me the reported log10(solubility kinetic) of each entry?
conditions: buffer; pH 7.4; 200.0 µM
// units: µg/mL (pre-log); metric: solubility kinetic; scale: log10

- COc1ccc(/C=C/C(=O)O)cc1S(=O)(=O)Nc1ccc2c(c1)OCO2: 1.70

Hi, could you look up log10(solubility kinetic) for each item in my list?
1. CC(C)CC1C(C#N)=C(N)OC2=C1C(=O)CC(c1ccccc1)C2 (centres undefined)
2. COc1ccc(CN2CN(C3CCCC3)CSC2=S)cc1
3. COc1ccc(C(=O)CC(=O)Nc2ccc([N+](=O)[O-])cc2)cc1
4. COc1cccc(NC(=O)c2cncs2)c1
5. C/C(=N\O)c1ccc(Cl)c(Cl)c1
6. COc1cccc(S(=O)(=O)Nc2cccc(C(=O)N3CCCC3)c2)c1

1. 1.58
2. -0.10
3. 0.41
4. 1.52
5. 1.08
6. 1.68
